molecular target: Schistosoma mansoni thioredoxin glutathione reductase (TGR) (UniProt Q962Y6); assay: qHTS Assay for the Inhibitors of Schistosoma Mansoni Peroxiredoxins; conditions: purified TGR, DTNB reduction, TNB absorbance 405 nm; series mostly up to 114 µM; further: nearly all actives have a fitted effect of over 60% in size
In all, about 360,000 compounds went through this assay and about 11,000 (3.1%) were called active. Another 4% or so got no clear call; they are omitted. The call rests on the fitted dose curve; in most records, active means well fitted inhibition curve with a large enough effect; inconclusive means small, poorly fitted or top-dose-only effect; inactive means no such curve, though single readings can be large or run the other way. Many of the other results were omitted from the sample, so actives are more common in it than they were.
Tick one outcome: t = active, f = inactive

Would you please look over these solved cases?
Each compound tested received a call. Report the one for CC(C)(C)c1ccc(S(=O)(=O)Nc2ccc(O)c(Sc3nc4ccccc4s3)c2)cc1 .
f

Each compound tested received a call. Report the one for Cc1ccc(CCNC(=O)c2ccc(CNS(=O)(=O)c3ccc(C)cc3)cc2)cc1 .
f

Each compound tested received a call. Report the one for Cc1nnc(SCC(=O)N2CCOCC2)[nH]c1=O .
f

Each compound tested received a call. Report the one for CCOC(=O)c1ccc(NC(=O)CS(=O)(=O)c2cn(CC)c3ccccc23)cc1 .
f

---
Each compound tested received a call. Report the one for Cc1cccc(C(=O)Nc2ccc(-c3nc4ncccc4o3)cc2C)c1 .
f

These data points were gathered from PubChem BioAssay AID485364.
